Field: survival at 264 h. Provide a value for each of the compounds that follow.
assayComment: Toxicity in BALB/c mouse implanted with mouse 4T1 cells assessed as survival rate at 5 mg/kg, iv measured for 11 days
Format: organism-based
experimentalConditions: in vivo, time 11 day
One number for each entry, in %.

smilesRecord: CCCN1/C(=C/C=C2\CCCC(/C=C/C3=[N+](Cc4ccc(C(=O)O)cc4)c4ccccc4C3(C)C)=C2Cl)C(C)(C)c2ccccc21.[Br-]
propertyMeasured: survival at 264 h
measValue: 100

Would you kindly look at the next entry?
Query: Supply survival at 264 h value. Item: CCN1/C(=C/C=C2\CCCC(/C=C/C3=[N+](CCCOc4ccc(C(=O)O)cc4)c4ccccc4C3(C)C)=C2Cl)C(C)(C)c2ccccc21.[Br-]
Result: 100

---

Field: remaining at 1 h. Provide a value for each of the molecules that follow.
assayComment: Photostability of compound in DMSO-H2O incubated for 1 hr irradiated with deuterium lamp by absorbance based analysis
Format: physicochemical
experimentalConditions: read-out: Stability
One number for each entry, in %.

Your task in this section: give remaining at 1 h for each listed record.
1. CC1(C)C(/C=C/C=C/C=C/C=C2\N(CCCCS(=O)(=O)O)c3ccc4ccccc4c3C2(C)C)=[N+](CCCCS(=O)(=O)[O-])c2ccc3ccccc3c21 [INDOCYANINE GREEN]
2. CCN1/C(=C/C=C2\CCCC(/C=C/C3=[N+](CCCOc4ccc(C(=O)O)cc4)c4ccccc4C3(C)C)=C2Cl)C(C)(C)c2ccccc21.[Br-]
3. CCCN1/C(=C/C=C2\CCCC(/C=C/C3=[N+](Cc4ccc(C(=O)O)cc4)c4ccccc4C3(C)C)=C2Cl)C(C)(C)c2ccccc21.[Br-]
4. CCCN1/C(=C/C=C2\CCCC(/C=C/C3=[N+](CCCOc4ccc(C(=O)O)cc4)c4ccccc4C3(C)C)=C2Cl)C(C)(C)c2ccccc21.[Br-]

Result:
1: 95.2; 2: 96.9; 3: 95.8; 4: 89.4

---

assayComment: Drug uptake in mouse 4T1 cells assessed as increase in green fluorescence intensity at 5 uM incubated for 30 mins by F-actin staining staining based microscopic analysis
Type: ADME, cell-based
experimentalConditions: 4t1, 0.5 h
propertyMeasured: Drug uptake

A selection of reference data follows.
smilesRecord: CCN1/C(=C/C=C2\CCCC(/C=C/C3=[N+](CCCOc4ccc(C(=O)O)cc4)c4ccccc4C3(C)C)=C2Cl)C(C)(C)c2ccccc21.[Br-]
Drug uptake: Active
--
smilesRecord: CC1(C)C(/C=C/C2=C(Cl)C(=C/C=C3/N(CCCCCC(=O)O)c4ccccc4C3(C)C)/CCC2)=[N+](CCCOc2ccc(C(=O)O)cc2)c2ccccc21.[Br-]
Drug uptake: Active
--
smilesRecord: CCCN1/C(=C/C=C2\CCCC(/C=C/C3=[N+](CCCOc4ccc(C(=O)O)cc4)c4ccccc4C3(C)C)=C2Cl)C(C)(C)c2ccccc21.[Br-]
Drug uptake: Not_active
--
smilesRecord: COC(=O)CCC(=O)CNC(=O)c1ccc(CN2/C(=C/C=C3\CCCC(/C=C/C4=[N+](Cc5ccc(C(=O)NCC(=O)CCC(=O)OC)cc5)c5ccccc5C4(C)C)=C3Cl)C(C)(C)c3ccccc32)cc1.[Br-]
Drug uptake: Active
--
smilesRecord: COC(=O)CNC(=O)c1ccc(OCCC[N+]2=C(/C=C/C3=C(Cl)C(=C/C=C4/N(Cc5ccc(C(=O)O)cc5)c5ccccc5C4(C)C)/CCC3)C(C)(C)c3ccccc32)cc1.[Br-]
Drug uptake: Active
--
smilesRecord: CCN1/C(=C/C=C2\CCCC(/C=C/C3=[N+](Cc4ccc(C(=O)O)cc4)c4ccccc4C3(C)C)=C2Cl)C(C)(C)c2ccccc21.[Br-]
Drug uptake: Not_active

Would you kindly look at the next entry?
Query: Supply Drug uptake value. Item: CCCN1/C(=C/C=C2\CCCC(/C=C/C3=[N+](Cc4ccc(C(=O)O)cc4)c4ccccc4C3(C)C)=C2Cl)C(C)(C)c2ccccc21.[Br-]
Result: Active
